Entries and their EC50, pSTAT5 induction in HH T cells (ELISA)
Target: T1, human intermediate-affinity IL-2 receptor complex, IL-2 CD122/CD132 (β/γ), on cells (human, UniProt P14784 27-551; P31785 23-369)
T1 sequence (looked up) 1: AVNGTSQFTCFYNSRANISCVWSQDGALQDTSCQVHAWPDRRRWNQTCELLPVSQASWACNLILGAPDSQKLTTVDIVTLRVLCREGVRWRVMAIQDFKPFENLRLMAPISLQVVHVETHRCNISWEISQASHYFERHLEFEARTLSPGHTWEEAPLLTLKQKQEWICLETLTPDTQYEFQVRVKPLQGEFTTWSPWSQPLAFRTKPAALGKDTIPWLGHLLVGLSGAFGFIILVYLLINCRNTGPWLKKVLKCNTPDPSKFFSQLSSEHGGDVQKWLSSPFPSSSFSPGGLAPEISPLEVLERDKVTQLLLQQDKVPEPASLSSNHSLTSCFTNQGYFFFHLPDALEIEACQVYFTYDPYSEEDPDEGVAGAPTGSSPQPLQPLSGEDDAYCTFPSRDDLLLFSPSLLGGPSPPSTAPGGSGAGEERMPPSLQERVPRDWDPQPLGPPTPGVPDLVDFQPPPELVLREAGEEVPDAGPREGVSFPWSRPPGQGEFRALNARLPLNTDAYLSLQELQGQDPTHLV
T1 sequence (looked up) 2: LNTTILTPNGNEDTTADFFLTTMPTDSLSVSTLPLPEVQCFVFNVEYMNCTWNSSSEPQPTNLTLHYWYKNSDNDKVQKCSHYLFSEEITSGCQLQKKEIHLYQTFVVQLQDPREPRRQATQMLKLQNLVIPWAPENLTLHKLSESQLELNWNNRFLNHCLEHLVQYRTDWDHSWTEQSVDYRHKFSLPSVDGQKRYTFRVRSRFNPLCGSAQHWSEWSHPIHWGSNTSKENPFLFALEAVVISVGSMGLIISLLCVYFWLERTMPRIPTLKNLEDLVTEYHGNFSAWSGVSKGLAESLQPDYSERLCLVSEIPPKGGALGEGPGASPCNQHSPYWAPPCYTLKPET
Assay: cell-based or functional assay
measured parameter: EC50, pSTAT5 induction in HH T cells (ELISA) (nM)

>>> number("Fc-IL2-R38N:L40T-K43N:Y45T (Fc fusion) GGGGSGGGGSAPTSSSTKKTQLQLEHLLLDLQMILNGINNYKNPKLTNMTTFNFTMPKKATELKHLQCLEEELKPLEEVLNLAQSKNFHLRPRDLISNINVIVLELKGSETTFMCEYADETATIVEFLNRWITFCQSIISTLT")
218
>>> number("Fc-IL2-K43N:Y45T-L72N:Q74T (Fc fusion) GGGGSGGGGSAPTSSSTKKTQLQLEHLLLDLQMILNGINNYKNPKLTRMLTFNFTMPKKATELKHLQCLEEELKPLEEVLNNATSKNFHLRPRDLISNINVIVLELKGSETTFMCEYADETATIVEFLNRWITFCQSIISTLT")
65.2
>>> number("Fc-IL2-K43N:Y45T-E62N:K64T (Fc fusion) GGGGSGGGGSAPTSSSTKKTQLQLEHLLLDLQMILNGINNYKNPKLTRMLTFNFTMPKKATELKHLQCLEENLTPLEEVLNLAQSKNFHLRPRDLISNINVIVLELKGSETTFMCEYADETATIVEFLNRWITFCQSIISTLT")
66.2
>>> number("Fc-IL2v (Fc fusion) GGGGSGGGGSAPASSSTKKTQLQLEHLLLDLQMILNGINNYKNPKLTRMLTAKFAMPKKATELKHLQCLEEELKPLEEVLNGAQSKNFHLRPRDLISNINVIVLELKGSETTFMCEYADETATIVEFLNRWITFAQSIISTLT")
24.9

Data provenance is patent US20220033784A1.
